Each recorded value in this set is attributed to paper PMC7144934.

test: Single dose pharmacokinetic study in male C57BL/6 mice; assay type: in vivo; details: mouse, plasma, IV 3 mg/kg
assayReadout: Cmax (ng/mL)
Express the result in ng/mL but write the number alone.

Consider the compound CC1CC(C)CN(c2ccc(C(CC(=O)O)C(F)(F)F)cc2NC(=O)Nc2ccc(C#N)cc2)C1 (stereo not shown) . State its measured Cmax.
6960

* * *

experiment: Single dose pharmacokinetic study in male C57BL/6 mice; format: in vivo; conditions: male, C57BL/6, mouse, plasma, po, 30 mg/kg, PO 30 mg/kg
assayReadout: AUC(0-inf) (ng·h/mL)
Value expressed in ng·h/mL; do not type the unit.

Find the measured AUC(0-inf) of CC1CC(C)CN(c2ccc(C(CC(=O)O)C(F)(F)F)cc2NC(=O)Nc2ccc(C#N)cc2)C1 (stereo not shown) and report it.
11500

* * *

test: Single dose pharmacokinetic study in male C57BL/6 mice; assay type: in vivo; conditions: mouse, plasma, PO 30 mg/kg
assayReadout: Cmax (µg/mL)
Report the figure in µg/mL without appending any unit label.

Please report the measured Cmax for CC1CC(C)CN(c2ccc(C(CC(=O)O)C(F)(F)F)cc2NC(=O)Nc2ccc(C#N)cc2)C1 (stereo not shown) [i12]
2.7

* * *

test: Single dose pharmacokinetic study in male C57BL/6 mice; type: in vivo; conditions: mouse, plasma, PO 30 mg/kg vs IV 3 mg/kg, read-out: F% (oral bioavailability)
assayReadout: bioavailability (%)
Expressed in %, but write only the number.

Return value of bioavailability for input CC1CC(C)CN(c2ccc(C(CC(=O)O)C(F)(F)F)cc2NC(=O)Nc2ccc(C#N)cc2)C1 (stereo not shown) , no commentary.
87.4

* * *

experiment: Single dose pharmacokinetic study in male C57BL/6 mice; assay type: in vivo; details: mouse, plasma, PO 30 mg/kg, read-out: t1/2β (converted)
assayReadout: half-life (h)
Hi! Could you send only the number? It should be in h, unit omitted.

Look up half-life of CC1CC(C)CN(c2ccc(C(CC(=O)O)C(F)(F)F)cc2NC(=O)Nc2ccc(C#N)cc2)C1 (stereo not shown) [i12] and report it.
11.2

* * *

assay: Single dose pharmacokinetic study in male C57BL/6 mice; type: in vivo; conditions: mouse, plasma, IV 3 mg/kg, read-out: MRT(0–∞)
assayReadout: MRT inf (h)
Write the answer as a number in h, unit excluded.

Hello, please tell me recorded MRT inf for this one: CC1CC(C)CN(c2ccc(C(CC(=O)O)C(F)(F)F)cc2NC(=O)Nc2ccc(C#N)cc2)C1 (stereo not shown)
8.6

* * *

biological target: Recombinant human IDO1 (rhIDO1) (Homo sapiens, UniProt P14902); construct: made in house; assay: Enzyme assay for IDO1 inhibition; type: biochemical; conditions: rhIDO1 enzyme assay, 37 °C, 45 min
Sequence (P14902 whole entry): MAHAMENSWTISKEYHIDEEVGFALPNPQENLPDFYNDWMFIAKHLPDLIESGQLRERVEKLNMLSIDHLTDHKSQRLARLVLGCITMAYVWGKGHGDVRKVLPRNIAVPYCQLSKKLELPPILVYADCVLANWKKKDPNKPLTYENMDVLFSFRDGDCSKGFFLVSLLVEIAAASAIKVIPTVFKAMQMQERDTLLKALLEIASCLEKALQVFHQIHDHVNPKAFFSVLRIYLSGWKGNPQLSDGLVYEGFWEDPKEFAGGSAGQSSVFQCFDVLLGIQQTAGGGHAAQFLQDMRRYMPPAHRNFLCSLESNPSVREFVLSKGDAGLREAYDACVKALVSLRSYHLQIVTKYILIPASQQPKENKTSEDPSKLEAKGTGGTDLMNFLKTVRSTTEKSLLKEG
assayReadout: IC50

| molecule | endpointValue |
| --- | --- |
| CC1CC(C)CN(c2ccc(C(CC(=O)O)C(F)(F)F)cc2NC(=O)Nc2ccc([N+](=O)[O-])cc2)C1 (stereo not shown) | 0.157 µM |

Give reported IC50 value for Cc1ccc(NC(=O)Nc2cc(C(CC(=O)O)C(F)(F)F)ccc2N2CC(C)CC(C)C2)cc1 (stereo not shown)
8.61 µM

Please give measured IC50 of the following entry: CC1CC(C)CN(c2ccc(C(CC(=O)O)C(F)(F)F)cc2NC(=O)Nc2ccc(Cl)cc2)C1 (stereo not shown)
5.69 µM

Note down IC50 recorded for CC1CC(C)CN(c2ccc(C(CC(=O)O)C(F)(F)F)cc2NC(=O)Nc2ccccc2)C1 (stereo not shown)
34.1 µM

Provide only the value of recorded IC50 for CCOC(=O)CC(c1ccc(N2CC(C)CC(C)C2)c(NC(=O)Nc2ccc(C)cc2)c1)C(F)(F)F (stereo not shown)
> 100 µM

Look up and report measured IC50 for this entry: CC1CC(C)CN(c2ccc(C(CC(=O)O)C(F)(F)F)cc2NC(=O)Nc2cccc(C#N)c2)C1 (stereo not shown)
> 100 µM

Please look at this molecule and report its IC50: CC1CC(C)CN(c2ccc(C(CC(=O)O)C(F)(F)F)cc2NC(=O)Nc2ccc(F)cc2F)C1 (stereo not shown)
> 100 µM

Read off the recorded IC50 for CC1CC(C)CN(c2ccc(C(CC(=O)O)C(F)(F)F)cc2NC(=O)Cc2ccc([N+](=O)[O-])cc2)C1 (stereo not shown)
> 100 µM
